experiment: Steady state kinetics of purified NTR, variable substrate nitrofurazone; assay type: biochemical; conditions: fixed substrate NADH
The entries below are paired with their reported kcat.
MEASUREMENT KIND: kcat

>  <MOLECULE>
Wild type: wild-type E. coli nitroreductase (NTR) encoded by the NfsB gene, SEQ ID NO:1 (protein, listed as Escherichia coli) MDIISVALKRHSTKAFDASKKLTPEQAEQIKTLLQYSPSSTNSQPWHFIVASTEEGKARVAKSAAGNYVFNERKMLDASHVVVFCAKTAMDDVWLKLVVDQEDADGRFATPEAKAANDKGRKFFADMHRKDLHDDAEWMAKQVYLNVGNFLLGVAALGLDAVPIEGFDAAILDAEFGLKEKGYTSLVVVPVGHHSVEDFNATLPKSRLPQNITLTEV

>  <ENDPOINT VALUE>
11.4 ± 0.05 s⁻¹

$$$$
>  <MOLECULE>
Y68G: NTR mutant, tyrosine 68 to glycine (protein) MDIISVALKRHSTKAFDASKKLTPEQAEQIKTLLQYSPSSTNSQPWHFIVASTEEGKARVAKSAAGNGVFNERKMLDASHVVVFCAKTAMDDVWLKLVVDQEDADGRFATPEAKAANDKGRKFFADMHRKDLHDDAEWMAKQVYLNVGNFLLGVAALGLDAVPIEGFDAAILDAEFGLKEKGYTSLVVVPVGHHSVEDFNATLPKSRLPQNITLTEV

>  <ENDPOINT VALUE>
59.02 ± 0.4 s⁻¹

$$$$
>  <MOLECULE>
T41L: NTR mutant, threonine 41 to leucine (protein) MDIISVALKRHSTKAFDASKKLTPEQAEQIKTLLQYSPSSLNSQPWHFIVASTEEGKARVAKSAAGNYVFNERKMLDASHVVVFCAKTAMDDVWLKLVVDQEDADGRFATPEAKAANDKGRKFFADMHRKDLHDDAEWMAKQVYLNVGNFLLGVAALGLDAVPIEGFDAAILDAEFGLKEKGYTSLVVVPVGHHSVEDFNATLPKSRLPQNITLTEV

>  <ENDPOINT VALUE>
35.14 ± 0.612 s⁻¹

$$$$
>  <MOLECULE>
F124K: NTR mutant, phenylalanine 124 to lysine (protein) MDIISVALKRHSTKAFDASKKLTPEQAEQIKTLLQYSPSSTNSQPWHFIVASTEEGKARVAKSAAGNYVFNERKMLDASHVVVFCAKTAMDDVWLKLVVDQEDADGRFATPEAKAANDKGRKFKADMHRKDLHDDAEWMAKQVYLNVGNFLLGVAALGLDAVPIEGFDAAILDAEFGLKEKGYTSLVVVPVGHHSVEDFNATLPKSRLPQNITLTEV

>  <ENDPOINT VALUE>
12.6 ± 0.25 s⁻¹

$$$$
>  <MOLECULE>
F124H: NTR mutant, phenylalanine 124 to histidine (protein) MDIISVALKRHSTKAFDASKKLTPEQAEQIKTLLQYSPSSTNSQPWHFIVASTEEGKARVAKSAAGNYVFNERKMLDASHVVVFCAKTAMDDVWLKLVVDQEDADGRFATPEAKAANDKGRKFHADMHRKDLHDDAEWMAKQVYLNVGNFLLGVAALGLDAVPIEGFDAAILDAEFGLKEKGYTSLVVVPVGHHSVEDFNATLPKSRLPQNITLTEV

>  <ENDPOINT VALUE>
10.7 ± 0.267 s⁻¹

$$$$
